Target: Full length LIGHT T191A on HEK293FF cells (Homo sapiens (Human), UniProt O43557 1-240)
Sequence (O43557 whole entry T191A): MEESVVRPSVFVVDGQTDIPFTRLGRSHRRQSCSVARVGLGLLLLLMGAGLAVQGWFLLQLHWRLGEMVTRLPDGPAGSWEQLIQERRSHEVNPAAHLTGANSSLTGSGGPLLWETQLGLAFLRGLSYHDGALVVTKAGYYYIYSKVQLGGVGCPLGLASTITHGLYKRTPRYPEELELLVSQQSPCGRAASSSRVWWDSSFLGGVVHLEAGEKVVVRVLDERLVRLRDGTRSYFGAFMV
Test: flow cytometry, HEK293FF, mAb at EC50
MEASURED_PARAMETER: % of WT binding (%)
# output: bare number, implied unit %

Ask: If you can, please state the reported % of WT binding value of 2E08 chimeric IgG4 mAb (antibody, V domains shown, Chimeric human IgG4 (S-to-P, L-to-E) with human CL, as m1; also called Parental 2E08) VH: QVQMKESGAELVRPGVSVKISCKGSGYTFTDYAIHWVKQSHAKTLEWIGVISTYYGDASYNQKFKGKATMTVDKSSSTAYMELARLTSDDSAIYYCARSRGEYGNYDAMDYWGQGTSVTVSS VL: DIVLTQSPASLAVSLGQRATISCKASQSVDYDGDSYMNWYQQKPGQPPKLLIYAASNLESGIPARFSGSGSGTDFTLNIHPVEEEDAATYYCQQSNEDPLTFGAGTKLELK .
Reply: 22

Ask: If you can, please state the reported % of WT binding value of 3E09 chimeric IgG4 mAb (antibody, V domains shown, Chimeric human IgG4 (S-to-P, L-to-E) with human CL, as m1; also called Parental 3E09) VH: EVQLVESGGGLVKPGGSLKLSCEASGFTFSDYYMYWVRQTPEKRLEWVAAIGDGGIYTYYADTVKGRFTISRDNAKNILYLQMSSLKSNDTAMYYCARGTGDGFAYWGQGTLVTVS VL: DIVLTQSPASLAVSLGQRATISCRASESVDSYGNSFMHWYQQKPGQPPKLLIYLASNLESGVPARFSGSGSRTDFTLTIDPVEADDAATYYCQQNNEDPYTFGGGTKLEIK .
Reply: 88

Ask: If you can, please state the reported % of WT binding value of 3C10 chimeric IgG4 mAb (antibody, V domains shown, Chimeric human IgG4 (S-to-P, L-to-E) with human CL, as m1; also called Parental 3C10) VH: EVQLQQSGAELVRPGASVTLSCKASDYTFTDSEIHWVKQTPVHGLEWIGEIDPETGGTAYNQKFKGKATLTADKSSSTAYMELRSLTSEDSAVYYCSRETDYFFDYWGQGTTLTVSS VL: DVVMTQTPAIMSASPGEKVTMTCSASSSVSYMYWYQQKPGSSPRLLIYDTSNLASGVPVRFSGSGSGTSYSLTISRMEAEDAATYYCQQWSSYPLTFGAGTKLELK .
Reply: 3

Ask: If you can, please state the reported % of WT binding value of 3A07 chimeric IgG4 mAb (antibody, V domains shown, Chimeric human IgG4 (S-to-P, L-to-E) with human CL, as m1; also called Parental 3A07) VH: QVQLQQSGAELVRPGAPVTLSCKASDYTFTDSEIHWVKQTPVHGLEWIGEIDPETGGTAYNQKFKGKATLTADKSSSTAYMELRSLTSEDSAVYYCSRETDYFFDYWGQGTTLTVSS VL: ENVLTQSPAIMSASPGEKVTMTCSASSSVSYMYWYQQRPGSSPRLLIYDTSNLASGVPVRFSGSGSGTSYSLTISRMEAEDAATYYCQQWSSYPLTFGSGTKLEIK .
Reply: 4
